# GI50 values compiled below
System: CAKI-1
test.summary: NCI tumour cell line growth inhibition, 48 h
Activity calls are given as the source filed them. Cut-off read from the data, not from the text of the source: active = GI50 up to about 1.1 µM and inactive = higher.

- compound: "COc1ccc(C(=O)O)c2c(=O)c3ccccc3[nH]c12"
  GI50: "> 100 µM (inactive)"
- compound: "N#CC1N(C(=O)c2ccc(F)cc2)c2ccccc2N1C(=O)c1ccc(F)cc1"
  GI50: "62.8 µM (inactive)"
- compound: "CN1N(c2ccccc2)C(=O)C2=NC=C(C(=O)c3ccccc3)C(=N)C21C (stereo not given)"
  GI50: "> 100 µM (inactive)"
- compound: "C/C(=N\\N=C(\\N)SB(F)F)c1ccc2ccccc2c1"
  GI50: "> 100 µM (inactive)"
- compound: "Cc1cc2ccc(N)nc2nc1O"
  GI50: "> 100 µM (inactive)"
- compound: "CC(CN(C)C)C(=O)c1ccccc1 (stereo not given)"
  GI50: "3.43 µM (inactive)"
- compound: "O=C(Nc1ccc([N+](=O)[O-])cc1Cl)c1cccc([N+](=O)[O-])c1O"
  GI50: "1.83 µM (inactive)"
- compound: "COc1ccc(C2c3c[nH]nc3CC3CCCCC32)cc1 (stereo not given)"
  GI50: "14.2 µM (inactive)"
- compound: "C=C1C(=O)OC2CC(C)C3C4OC4C(O)C3(C)C(O)C12 (stereo not given)"
  GI50: "22.8 µM (inactive)"
- compound: "CC1=CC(=O)/C(=C/NC(=O)NN)C(=O)O1"
  GI50: "> 100 µM (inactive)"

Cited source: ChEMBL document CHEMBL1201862
